B1: Pituitary-specific positive transcription factor 1, residues 130 to 198; numbered along this chain, P28069 (parent)
chain: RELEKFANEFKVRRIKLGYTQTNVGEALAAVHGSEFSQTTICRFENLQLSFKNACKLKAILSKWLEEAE

# Variants of: B1
# protocol: abundance fitness (aPCA) (normalised: wild type 0, dead -1); higher = more abundant; growth selection in yeast, the domain comes from the species named
# condition-label: Homo sapiens
Hi there, I'd appreciate the recorded abundance fitness for every entry that follows.
Lab note: write the figure by itself, no unit.

Inquiry: What value of measured abundance fitness is listed for `K16R` ?
Reply text: -0.027

Inquiry: What value of measured abundance fitness is listed for `E9Y` ?
Reply text: -0.72

Inquiry: What value of measured abundance fitness is listed for `R1T` ?
Reply text: -0.371

Inquiry: What value of measured abundance fitness is listed for `L47R` ?
Reply text: -0.065

Inquiry: What value of measured abundance fitness is listed for `I15C` ?
Reply text: -0.327
